Test system: M14 melanoma
Experiment: NCI-60 one-dose screen, 48 h
Conditions: 10 µM unless noted
The panel holds about 83,000 compounds, 20% with a hit somewhere; the sample as a whole holds those more often. Activity calls are given as the source filed them. Rule for the calls: active = growth percent below 10; inactive = the rest.
Hello, when you answer, please use one of the following outcomes: T for active, F for inactive

Nc1n[nH]c2cccc(C#Cc3cccc(C(=O)Nc4cccc(C(F)(F)F)c4)c3)c12 | F
CCOC(=O)c1cc(C(=O)c2ccc(OC)c(OC)c2)n2c1ccc1ccccc12 | F
COc1cc(/C=C\C(=O)O)ccc1OCc1ccccc1 | F
COc1ccc(NC(N)=NCCCOc2ccc(F)cc2)cc1 | F
C=C1C(=O)O[C@H]2[C@H]1CC/C(COC(=O)NCc1c[nH]c3ccc(F)cc13)=C\CC[C@@]1(C)O[C@@H]21 | T

// query Which outcome did this test record for the compound C=C(C)[C@@H]1CC[C@]2(C(=O)N3CCN(C)CC3)CC[C@]3(C)[C@H](CC[C@@H]4[C@@]5(C)CC[C@H](O)C(C)(C)[C@@H]5CC[C@]43C)[C@@H]12 ?
// result T

// query Which outcome did this test record for the compound CC(=O)c1ccc(NS(=O)(=O)c2cccc(C(=O)Nc3ccc(Br)cc3)c2)cc1 ?
// result F

// query Which outcome did this test record for the compound COc1ccc(/C=C/c2nc(Nc3ccc(S(=O)(=O)NC(C)=O)cc3)c3ccccc3n2)cc1 ?
// result F

// query Which outcome did this test record for the compound Cc1ccc(NC(=O)Cc2ccc(/C=C/C(=O)c3ncc[nH]3)cc2)cc1 ?
// result F

###

Give growth for every item shown.
System: M14 melanoma
Assay: NCI-60 one-dose screen, 48 h (100 = growth as untreated, 0 = no growth, -100 = all killed)
Details: 10 µM unless noted
This is part of a sample that, as a whole, favours compounds with a hit. Of some 83,000 tested, about 20% had one in any assay.
One number for each entry, in %.

Sample records with growth:
COc1cc2c(-c3cc4c(cc3CNCCc3ccc5c(c3)OCO5)OCO4)cccc2c(OC)c1O | 84.4
O=C(CCN1CCCC1)Nc1ccc2c(Nc3ccc(F)cc3)c3ccccc3nc2c1 | -80.7
Cc1nc2sccn2c1-c1nc2sccn2c1/C=C1/C(=O)Nc2ccccc21 | 34.2
COc1ccc(-c2cnc3c(-c4cccc5cnccc45)cnn3c2)cc1 | 74.5
COC(=O)C(OC(C)=O)C(OC(C)=O)c1ccc(OC)c(OC)c1 (stereo not given) | 93.9

I have 3 molecules here; please give me growth for each one.
1. N#Cc1c(-c2ccccc2)nc2c(c(-c3ccccc3)nn2-c2ccccc2)c1-c1ccc(O)cc1
2. CCCCC[n+]1ccc(SCC(=O)N(C)c2ccc(Oc3ccccc3)cc2)c2ccccc21
3. CNCCn1c(=O)c2cc(OC)c(OC)cc2c2ccc3cc4c(cc3c21)OCO4

// result
1: 56.4; 2: 102; 3: -50.5

I have 2 molecules here; please give me growth for each one.
1. COc1ccc(CNCCN2C(=O)c3ccc4c5c(ccc(c35)C2=O)C(=O)N(CCNCc2ccc(OC)c(OC)c2OC)C4=O)c(OC)c1OC
2. CCOC(=O)c1cc(C(=O)c2ccc(OC)cc2)n2ccc(/C=C/c3cc[n+](CC(=O)c4ccc(OC)cc4)cc3)cc12

// result
-58.3
75.4

###

Test system: OVCAR-8 ovarian
Test: NCI-60 one-dose screen, 48 h (100 = growth as untreated, 0 = no growth, -100 = all killed)
Settings: 10 µM unless noted
Compounds without any hit were thinned out: in the full panel of roughly 83,000, 20% have a hit.
Property name: growth (%)
Numbers only, in %.

Sample records with growth:
C=CCN1C(=O)/C(=C/C(=O)OC)S/C1=N\NC(=O)c1cc2ccc1/C=C\c1ccc(cc1)/C=C\2 | 88.2
CNCCOc1nc2c3cnccc3cc(-c3cc(OC)c(OC)c(OC)c3)c2c2ccncc12 | -37.3
O=C(/C=C(/C=C/c1coc2ccccc12)OB(F)F)/C=C/c1coc2ccccc12 | 87.7
O=S(=O)(NCCNc1nccc(-c2c(-c3cccc(F)c3)nc3sccn23)n1)c1ccc(Br)cc1 | 45.5
C=C1C(=O)O[C@H]2[C@H]1CC/C(COC(=O)NCC(C)c1ccc(CC(C)C)cc1)=C\CC[C@@]1(C)O[C@@H]21 (stereo partly drawn) | -51
COc1cccc(-c2nc3occn3c2-c2ccnc(NCCCNS(=O)(=O)c3ccc(C(F)(F)F)cc3)n2)c1 | 87
O=C(Cc1ccc(/C=C/C(=O)c2nccs2)cc1)Nc1ccccc1 | 90.5
COc1cc2c(c(OC)c1OC)CCC(c1cccc(NC(=O)c3cccc(Br)c3)c1)O2 (stereo not drawn) | 93.6
COc1ccc(C(=O)c2cc(C)c(OC)c(C)c2)c(OC)c1NC(C)=O | 16.9
COc1ccc(/C=N/NC(=O)c2cnn3c2NC(c2ccccc2)C3)cc1OC (stereo not drawn) | 75.3

I have 4 compounds here; please give me growth for each one.
1. C#CCNC(=O)[C@]1(C)CC[C@]2(C)CC[C@@H]3C(=CC[C@H]4[C@@]3(C)CC[C@H]3C(C)(C)C(=O)CC[C@]43C)[C@@H]2C1
2. COC(=O)CNC(=O)[C@]12CCC(C)(C)C[C@H]1C1=CC[C@@H]3[C@@]4(C)Cc5c([nH]c6ccccc56)C(C)(C)[C@@H]4CC[C@@]3(C)[C@]1(C)CC2
3. COc1ccc(NC(=O)c2cc(NCc3cc(O)ccc3O)ccc2O)cc1
4. COc1cc2nc(-c3ccc(C(F)(F)F)cc3)cc(OCCCN3CCOCC3)c2cc1OC

// result
1: 96.8; 2: 85.2; 3: 83.3; 4: 41.6
